Test system: wheat germ agglutinin (Triticum aestivum), Alexa647-labelled
Test: wheat germ agglutinin binders on compound microarrays, profiling panel, artefact control for SMM control-protein annotation, biochemical, small-molecule microarray, 635/667 nm fluorescence (AID 1140);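 note: score merges 667 nm feature emission with signal to noise over triplicate slides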
Conditions: WGA-A647 binding, 635 nm fluorescence, higher = more signal
Please use True whenever composite z-score is not below 0.8, and False whenever it is.

Solved entries:
{"compound": "COC(=O)C[C@H]1O[C@]2(C(=O)N(Cc3ccccc3)c3ccc(NC(C)=O)cc32)[C@@H](C)[C@@H]1[Si](C)(C)c1ccc(OC)cc1", "group.label": "False"}
{"compound": "C=C[C@@H](COC(C)=O)N(Cc1ccc([N+](=O)[O-])cc1)S(=O)(=O)c1ccc(Br)cc1", "group.label": "True"}
{"compound": "CC(C)CNC(=O)[C@@]1(c2ccc([N+](=O)[O-])cc2)CC(=O)N(CC23CC4CC(CC(C4)C2)C3)[C@@H]1c1ccc(CO)cc1I", "group.label": "False"}
{"compound": "O=C1O[C@H](c2ccccc2)[C@H](c2ccccc2)N2[C@H]1[C@@H](C(=O)O)[C@]1(C(=O)Nc3ccc(C#CC4=CCCCC4)cc31)[C@H]2c1ccc(OCCO)cc1", "group.label": "True"}
{"compound": "COc1ccc([Si](C)(C)[C@H]2[C@H](CCn3cc(CCO)nn3)O[C@@]3(C(=O)N(Cc4ccc(N5CCOC5=O)cc4)c4ccccc43)[C@@H]2C)cc1", "group.label": "True"}
{"compound": "COCCOC(=O)N1C(=O)[C@@]2(c3cc(C#CCNC(N)=O)ccc31)[C@H](c1ccc(O)cc1)N1[C@H](c3ccccc3)[C@H](c3ccccc3)OC(=O)[C@H]1[C@@H]2C(=O)NC[C@H](O)c1ccccc1", "group.label": "False"}

Query: Could you verify whether the entry C#CCN(C(/C=C/c1ccccc1)CO)C(C(=O)O)c1ccccc1 (centres undefined) shows composite z-score of no less than 0.8?
Reply: False

Query: Could you verify whether the entry COC(=O)c1ccc(C23CC2(C(NP(=O)(c2ccccc2)c2ccccc2)c2ccccc2)C3)cc1 (centres undefined) shows composite z-score of no less than 0.8?
Reply: True

Numbers sourced from PubChem BioAssay.
